tgt: UniProt:Q9UM07
method: RFMS Human PAD4 Functional Assay
Type: biochemical
condition.set: hPAD4 RFMS IC50, human PAD4, rapid-fire mass spectrum (RFMS) assay; 5 nM hPAD4, 250 μM BAEE
Assignment: determine reported IC50 for the given compounds.
One number for each entry, in nM.

Check out these entries, answers already filled in.
{"columns": ["compound", "measurement.type", "quantitative.result"],
 "data": [
  ["COc1cc(C(=O)N2C[C@H]3CC[C@@H]2[C@@H]3N)cc2nc(-c3cc4cccc(C5CC(C(=O)N(C)C)C5)c4n3CC3CC3)n(C)c12 (single isomer, unassigned) [Example 48]", "IC50", 50],
  ["COc1cc(C(=O)N2C[C@H]3CC[C@@H]2[C@@H]3N)cc2nc(-c3cc4cccc(-c5ccc(C(N)=O)nc5)c4n3CC3CC3)n(C)c12 [Example 194]", "IC50", 146],
  ["COc1cc(C(=O)N2C[C@H]3CC[C@@H]2[C@@H]3N)cc2nc(-c3cc4cccc(C5CCN(C(=O)CC#N)CC5)c4n3CC3CC3)n(C)c12 [Example 231]", "IC50", 66]
]}

Task: Complete the entry with IC50 for COc1cc(C(=O)N2C[C@H]3CC[C@@H]2[C@@H]3N)cc2nc(-c3cc4cccc(C5CN(C(=O)Cc6cccnc6)C5)c4n3CC3CC3)n(C)c12 [Example 78]
Output: 10

---

tgt: UniProt Q9UM07
method: RFMS Human PAD4 Functional Assay
Format: biochemical
condition.set: hPAD4 RFMS IC50, human PAD4, rapid-fire mass spectrum (RFMS) assay; 5 nM hPAD4, 250 μM BAEE
Would you mind classing the entries by IC50? Ranges: lo: < 0.04 µM; med: ≥ 0.04 µM and < 0.08 µM; hi: ≥ 0.08 µM

Example entries begin here.
{"columns": ["compound", "assigned.label"],
 "data": [
  ["COc1cc(C(=O)N2C[C@H](N)C[C@@H](F)C2)cc2nc(-c3cc4cccc(C5CC(C(=O)N6CCCC6)C5)c4n3CC3CC3)n(C)c12 (single isomer, unassigned) [Example 116]", "hi"],
  ["CCOC(=O)c1ccccc1-c1cccc2cc(-c3nc4cc(C(=O)N5C[C@H]6CC[C@@H]5[C@@H]6N)cc(OC)c4n3C)n(CC3CC3)c12 [Example 123]", "hi"],
  ["[2H]C([2H])([2H])N(C(=O)C1CC(c2cccc3cc(-c4nc5cc(C(=O)N6C[C@H]7CC[C@@H]6[C@@H]7N)cc(OC)c5n4C)n(CC4CC4)c23)C1)C([2H])([2H])[2H] (single isomer, unassigned; isomer 1) [Example 195]", "lo"],
  ["COc1cc(C(=O)N2C[C@H](N)C[C@@H](F)C2)cc2nc(-c3cc4cccc(C5CN(C(C)=O)C5)c4n3CC3CC3)n(Cc3cnn(C)c3)c12 [Example 212]", "lo"],
  ["COc1cc(C(=O)N2C[C@H]3CC[C@@H]2[C@@H]3N)cc2nc(-c3cc4cccc(C5CN(C(=O)CC#N)C5)c4n3CC3CC3)n(C)c12 [Example 77]", "lo"],
  ["COc1cc(C(=O)N2C[C@H]3CC[C@@H]2[C@@H]3N)cc2nc(-c3cc4cccc(Br)c4n3CC3CC3(F)F)n(C)c12 (some centres unmarked) [Example 146]", "med"]
]}

Task: Input COc1cc(C(=O)N2C[C@H](N)C[C@@H](F)C2)cc2nc(-c3cc4cccc(-c5ccc6c(c5)C(C)(O)C(=O)N6)c4n3CC3CC3)n(C)c12 (some centres unmarked) [Example 208] ; output its category
Output: med

Task: Lab note: which band did COc1cc(C(=O)N2C[C@H]3CC[C@@H]2[C@@H]3N)cc2nc(-c3cc4cccc(CCC5CCCNC5)c4n3CC3CC3)n(C)c12 (some centres unmarked) [Example 32] land in?
Output: lo

Task: Could you tell me which band COc1cc(C(=O)N2C[C@H]3CC[C@@H]2[C@@H]3N)cc2nc(-c3cc4cccc(C5CC(C(=O)O)C5)c4n3CC3CC3)n(C)c12 (single isomer, unassigned) [Example 55] belongs to?
Output: hi

Task: Record COc1cc(C(=O)N2C[C@H]3CC[C@@H]2[C@@H]3N)cc2nc(-c3cc4cccc(CCCN)c4n3CC3CC3)n(C)c12 [Example 11] — which class?
Output: med

---

tgt: human PAD4 (hPAD4) (Homo sapiens, UniProt Q9UM07)
Sequence (Q9UM07 whole entry): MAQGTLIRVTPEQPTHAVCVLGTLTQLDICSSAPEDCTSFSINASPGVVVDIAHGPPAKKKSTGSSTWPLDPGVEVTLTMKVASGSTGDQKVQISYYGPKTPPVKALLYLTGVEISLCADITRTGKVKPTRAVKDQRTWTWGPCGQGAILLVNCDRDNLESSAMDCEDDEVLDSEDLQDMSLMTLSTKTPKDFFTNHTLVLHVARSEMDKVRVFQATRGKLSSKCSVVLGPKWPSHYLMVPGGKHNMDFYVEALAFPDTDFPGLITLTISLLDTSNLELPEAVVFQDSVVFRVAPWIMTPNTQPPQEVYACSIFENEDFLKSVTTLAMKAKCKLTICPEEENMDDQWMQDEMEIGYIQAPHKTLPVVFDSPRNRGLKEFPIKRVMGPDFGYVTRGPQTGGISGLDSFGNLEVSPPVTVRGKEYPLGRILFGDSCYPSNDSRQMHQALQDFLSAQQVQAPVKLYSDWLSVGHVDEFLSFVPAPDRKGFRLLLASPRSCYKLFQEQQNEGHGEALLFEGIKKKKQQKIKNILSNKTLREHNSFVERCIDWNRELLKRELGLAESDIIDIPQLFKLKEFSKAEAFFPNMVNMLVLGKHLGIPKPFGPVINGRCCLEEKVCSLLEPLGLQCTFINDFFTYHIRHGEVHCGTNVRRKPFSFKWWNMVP
method: RFMS Human PAD4 Functional Assay
Format: biochemical
condition.set: human PAD4, rapid-fire mass spectrum (RFMS) assay; 5 nM hPAD4, 250 μM BAEE; read-out: hPAD4 RFMS IC50
measurement.type: pIC50
Give bare numbers, as −log10 of the molar value.

{"columns": ["compound", "quantitative.result"],
 "data": [
  ["COc1cc(C(=O)N2C[C@H]3CC[C@@H]2[C@@H]3N)cc2nc(-c3cc4cccc(C5CCCC(C(N)=O)C5)c4n3CC3CC3)n(C)c12 (single isomer, unassigned) [Example 85]", 7.31],
  ["COc1cc(C(=O)N2C[C@H]3CC[C@@H]2[C@@H]3N)cc2nc(-c3cc4cccc(NC5CCNCC5)c4n3CC3CC3)n(C)c12 [Example 158]", 7.16]
]}

Value sought for every listed compound: pIC50.
1. COc1cc(C(=O)N2C[C@H]3CC[C@@H]2[C@@H]3N)cc2nc(-c3cc4cccc(C5CCN(C(=O)Nc6ccccc6)CC5)c4n3CC3CC3)n(C)c12 [Example 187]
2. COc1cc(C(=O)N2C[C@H]3CC[C@@H]2[C@@H]3N)cc2nc(-c3cc4cccc(-c5ccc(O)c(CO)c5)c4n3CC3CC3)n(C)c12 [Example 119]

Output:
1: 7.74; 2: 7.70

---

tgt: human PAD4 (hPAD4) (Homo sapiens)
method: RFMS Human PAD4 Functional Assay
Assay type: biochemical
condition.set: hPAD4 RFMS IC50, human PAD4, rapid-fire mass spectrum (RFMS) assay; 5 nM hPAD4, 250 μM BAEE
measurement.type: IC50 (µM)
Answers are plain numbers, in µM.

Use these answered entries as a reference point.
{"columns": ["compound", "tgt", "readout.units", "quantitative.result"],
 "data": [
  ["COc1cc(C(=O)N2C[C@H]3CC[C@@H]2[C@@H]3N)cc2nc(-c3cc4cccc(-c5cnn(CC(C)(C)O)c5)c4n3CC3CC3)n(C)c12", "human PAD4 (hPAD4) (Homo sapiens)", "µM", 0.106],
  ["COc1cc(C(=O)N2C[C@H]3CC[C@@H]2[C@@H]3N)cc2nc(-c3cc4cccc(C5CCS(=O)(=O)C5)c4n3CC3CC3)n(C)c12 (stereo partly shown)", "human PAD4 (hPAD4) (Homo sapiens)", "µM", 0.08],
  ["COc1cc(C(=O)N2C[C@H]3CC[C@@H]2[C@@H]3N)cc2nc(-c3cc4cccc(C5=CCN(C(C)=O)CC5)c4n3CC3CC3)n(C)c12", "human PAD4 (hPAD4) (Homo sapiens)", "µM", 0.043],
  ["COc1cc(C(=O)N2CC3CCC2[C@@H]3N)cc2nc(-c3cc4cccc(Nc5ccc(CO)cc5)c4n3CC3CC3)n(C)c12 (stereo partly shown)", "human PAD4 (hPAD4) (Homo sapiens)", "µM", 0.153],
  ["COc1cc(C(=O)N2C[C@H]3CC[C@@H]2[C@@H]3N)cc2nc(-c3cc4cccc(C5CC(C(=O)O)C5)c4n3CC3CC3)n(C)c12 (single isomer, unassigned) [Example 56]", "human PAD4 (hPAD4) (Homo sapiens)", "µM", 0.17]
]}

Field: IC50. Fill in for each record below.
1. COc1cc(C(=O)N2C[C@H]3CC[C@@H]2[C@@H]3N)cc2nc(-c3cc4cccc(-c5cnn(CCO)c5)c4n3CC3CC3)n(C)c12
2. COc1cc(C(=O)N2C[C@H]3CC[C@@H]2[C@@H]3N)cc2nc(-c3cc4cccc(Nc5c(C)nn(C)c5C)c4n3CC3CC3(Cl)Cl)n(C)c12 (stereo partly shown)

Output:
0.101
0.076

---

tgt: human PAD4 (hPAD4) (Homo sapiens, UniProt Q9UM07)
method: RFMS Human PAD4 Functional Assay
Format: biochemical
condition.set: hPAD4 RFMS IC50, human PAD4, rapid-fire mass spectrum (RFMS) assay; 5 nM hPAD4, 250 μM BAEE
Response field label: string, one of Condition met (IC50 strictly below 80 nM) or Condition not met.

// below: answered compounds
{"columns": ["compound", "tgt", "assigned.label"],
 "data": [
  ["COc1cc(C(=O)N2C[C@H]3CC[C@@H]2[C@@H]3N)cc2nc(-c3cc4cccc(C5CCCN(C(N)=O)C5)c4n3CC3CC3)n(C)c12 (stereo partly shown)", "human PAD4 (hPAD4) (Homo sapiens, UniProt Q9UM07)", "Condition met"],
  ["COc1cc(C(=O)N2C[C@H]3CC[C@@H]2[C@@H]3N)cc2nc(-c3cc4cccc(-c5ccc(CNC(C)=O)cc5)c4n3CC3CC3)n(C)c12", "human PAD4 (hPAD4) (Homo sapiens, UniProt Q9UM07)", "Condition not met"],
  ["COc1cc(C(=O)N2C[C@H]3CC[C@@H]2[C@@H]3N)cc2nc(-c3cc4cccc(C5CN(C(=O)CCO)C5)c4n3CC3CC3)n(C)c12", "human PAD4 (hPAD4) (Homo sapiens, UniProt Q9UM07)", "Condition met"]
]}

Task: Confirm or reject: IC50 of COc1cc(C(=O)N2C[C@H]3CC[C@@H]2[C@@H]3N)cc2nc(-c3cc4cccc(CCn5cncn5)c4n3CC3CC3)n(C)c12 lies strictly below 80 nM
Output: Condition met

Task: Item COc1cc(C(=O)N2CC3CCC2[C@@H]3N)cc2nc(-c3cc4cccc(-c5cccc(CO)c5)c4n3CC3CC3)n(C)c12 (stereo partly shown) : IC50 beneath 80 nM, strictly?
Output: Condition met

Task: Strictly below 80 nM in IC50? COc1cc(C(=O)N2C[C@H]3CC[C@@H]2[C@@H]3N)cc2nc(-c3cc4cccc(-c5cnn(C[C@@H](C)O)c5)c4n3CC3CC3)n(C)c12
Output: Condition not met

The measurements presented in this section are drawn from patent US20220402950A1.
